# Tested on: SpTbr T-box DNA-binding domain (GST fusion);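 note: protein at 200 nM in PBS on universal double-stranded arrays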
# Sequence: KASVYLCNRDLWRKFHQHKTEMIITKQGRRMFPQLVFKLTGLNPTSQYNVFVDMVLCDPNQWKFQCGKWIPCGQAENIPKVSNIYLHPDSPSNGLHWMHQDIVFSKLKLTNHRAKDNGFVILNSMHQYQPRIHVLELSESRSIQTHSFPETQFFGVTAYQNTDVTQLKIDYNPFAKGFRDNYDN
# assay.summary: PBM E-score of 8-mer (E-score (dimensionless, -0.5 to 0.5)); higher = stronger binding preference
# recorded.conditions: the construct has about 5 more residues each side
Over roughly 33,000 sequences, “E-score (dimensionless, -0.5 to 0.5)” has its median near -0.046; the highest 2% begin near 0.36. Many of the other results were omitted from the sample, so the highest values are more common in it than they were.
Parameter PBM E-score of 8-mer: see the listing below.
Give only the figure.

Solved entries (count: 10):
entry.sequence: CACCTAAG
numeric.readout: 0.383
--
entry.sequence: AGTTGCGC
numeric.readout: 0.13
--
entry.sequence: CACGTGAC
numeric.readout: 0.286
--
entry.sequence: AAGGTGCC
numeric.readout: 0.364
--
entry.sequence: AAGGTGGT
numeric.readout: 0.247
--
entry.sequence: CACACGGC
numeric.readout: 0.151
--
entry.sequence: CCCCTAAG
numeric.readout: -0.17
--
entry.sequence: CAGGTGCC
numeric.readout: 0.388
--
entry.sequence: CTTACACA
numeric.readout: 0.276
--
entry.sequence: GGAGGGTA
numeric.readout: -0.0485

Query :: Given the entry "AGCGTGTC" , report its measured PBM E-score of 8-mer.
Result :: 0.152

Query :: And the next one, "AACGCCTT" ?
Result :: 0.367

Query :: And the next one, "GAACTTAC" ?
Result :: -0.0233

Query :: And the next one, "AACGTGTC" ?
Result :: 0.372

Query :: And the next one, "AACACGTG" ?
Result :: 0.36

###

# Test system: SpTbr T-box DNA-binding domain (GST fusion);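 note: protein at 200 nM in PBS on universal double-stranded arrays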
# Sequence: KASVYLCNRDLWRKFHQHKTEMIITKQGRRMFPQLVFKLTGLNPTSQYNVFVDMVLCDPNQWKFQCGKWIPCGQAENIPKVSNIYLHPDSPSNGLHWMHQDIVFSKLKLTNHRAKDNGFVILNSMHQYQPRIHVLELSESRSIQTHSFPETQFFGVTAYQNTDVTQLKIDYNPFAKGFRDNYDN
# assay.summary: PBM E-score of 8-mer (E-score (dimensionless, -0.5 to 0.5)); Tbr is Tbrain of the sea star Patiria miniata (Pm) or the sea urchin Strongylocentrotus purpuratus (Sp); higher = stronger binding preference
# recorded.conditions: target sequence: T-box / the construct has about 5 more residues each side
Whole data set: some 33,000 sequences, median “E-score (dimensionless, -0.5 to 0.5)” near -0.046, cut for the highest 2% near 0.36. Shown is part of a subset that was picked to be rich in the highest values.
Parameter PBM E-score of 8-mer: see the listing below.
Give only the figure.

entry.sequence: ATGGGCAG
experimental.system: SpTbr T-box DNA-binding domain (GST fusion);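 note: protein at 200 nM in PBS on universal double-stranded arrays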
numeric.readout: -0.0503
//
entry.sequence: CTTTTTCC
experimental.system: SpTbr T-box DNA-binding domain (GST fusion);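 note: protein at 200 nM in PBS on universal double-stranded arrays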
numeric.readout: -0.132
//
entry.sequence: AATGTCAG
experimental.system: SpTbr T-box DNA-binding domain (GST fusion);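 note: protein at 200 nM in PBS on universal double-stranded arrays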
numeric.readout: 0.0267

Query :: Given the entry "TAACTACA" , report its measured PBM E-score of 8-mer.
Result :: 0.0924

Query :: And the next one, "TAAGAACA" ?
Result :: -0.0304

Query :: And the next one, "GAGATTGC" ?
Result :: 0.116

Query :: And the next one, "GAATCGTA" ?
Result :: -0.0254

Query :: And the next one, "ACTTGCTG" ?
Result :: -0.0473

Query :: And the next one, "GGAGACAC" ?
Result :: 0.193

Sourced from the supplement of paper PMC4166925
